The entries below come with measured inhibition at 10 µM values attached.
# Tested on: U251
# test_summary: NCI-60 anticancer screening (SRB)
# Format: cell-based
# applied_conditions: Homo sapiens, U-251; U251, CNS cancer; one dose 10 μM; read-out: Growth Inhibition Percentage (GI %)
measured_parameter: inhibition at 10 µM (%)

{"columns": ["compound", "comparative_sign", "numeric_value"],
 "data": [
  ["CCOC(=O)C1=C(N)N(c2ccccc2)C2=C(C(=O)CC(C)(C)C2)C1c1ccccc1Cl (racemic)", "=", 21],
  ["CCOC(=O)C1=C(N)N(c2ccc(Cl)cc2)C2=C(C(=O)CC(C)(C)C2)C1c1ccc(OC)cc1 (racemic)", "<", 10],
  ["CCOC(=O)C1=C(N)N(c2ccc(Cl)cc2)C2=C(C(=O)CC(C)(C)C2)C1c1ccc([N+](=O)[O-])cc1 (racemic)", "<", 10],
  ["CCOC(=O)C1=C(N)N(c2ccc(Cl)cc2)C2=C(C(=O)CC(C)(C)C2)C1c1ccccc1OC (racemic)", "=", 28]
]}

###

The entries below come with measured inhibition at 10 µM values attached.
# Test system: SNB-75
# test_summary: NCI-60 anticancer screening (SRB)
# Assay type: cell-based
# applied_conditions: Homo sapiens; SNB-75, CNS cancer; one dose 10 μM; read-out: Growth Inhibition Percentage (GI %)
measured_parameter: inhibition at 10 µM (%)

{"columns": ["molecule", "measured_parameter", "comparative_sign", "numeric_value"],
 "data": [
  ["CCOC(=O)C1=C(N)N(c2ccccc2)C2=C(C(=O)CC(C)(C)C2)C1c1ccccc1Cl (racemic) [6a]", "inhibition at 10 µM", "=", 34],
  ["CCOC(=O)C1=C(N)N(c2ccc(C)cc2)C2=C(C(=O)CC(C)(C)C2)C1c1ccc(OC)cc1 (racemic) [8g]", "inhibition at 10 µM", "=", 13],
  ["CCOC(=O)C1=C(N)N(c2ccc(Cl)cc2)C2=C(C(=O)CC(C)(C)C2)C1c1ccc(F)cc1 (racemic) [8b]", "inhibition at 10 µM", "<", 10],
  ["CCOC(=O)C1=C(N)N(c2ccccc2)C2=C(C(=O)CC(C)(C)C2)C1c1ccc(N2CCOCC2)cc1 (racemic) [8l]", "inhibition at 10 µM", "<", 10],
  ["CCOC(=O)C1=C(N)N(c2ccc(C)cc2)C2=C(C(=O)CC(C)(C)C2)C1c1ccc(Cl)cc1 (racemic) [8d]", "inhibition at 10 µM", "=", 35],
  ["CCOC(=O)C1=C(N)N(c2ccc(C)cc2)C2=C(C(=O)CC(C)(C)C2)C1c1ccccc1Br (racemic) [6e]", "inhibition at 10 µM", "=", 13],
  ["CCOC(=O)C1=C(N)N(c2ccc(Cl)cc2)C2=C(C(=O)CC(C)(C)C2)C1c1ccccc1OC (racemic) [6i]", "inhibition at 10 µM", "=", 18],
  ["CCOC(=O)C1=C(N)N(c2ccc(Cl)cc2)C2=C(C(=O)CC(C)(C)C2)C1c1ccccc1Cl (racemic) [6c]", "inhibition at 10 µM", "=", 17],
  ["CCOC(=O)C1=C(N)N(c2ccccc2)C2=C(C(=O)CC(C)(C)C2)C1c1ccc(Cl)cc1Cl (racemic) [10c]", "inhibition at 10 µM", "=", 59],
  ["CCOC(=O)C1=C(N)N(c2ccc(Cl)cc2)C2=C(C(=O)CC(C)(C)C2)C1c1ccc(Cl)cc1Cl (racemic) [10d]", "inhibition at 10 µM", "=", 11],
  ["CCOC(=O)C1=C(N)N(c2ccccc2)C2=C(C(=O)CC(C)(C)C2)C1c1ccc(F)cc1 (racemic) [8a]", "inhibition at 10 µM", "<", 10],
  ["CCOC(=O)C1=C(N)N(c2ccc(C)cc2)C2=C(C(=O)CC(C)(C)C2)C1c1ccccn1 (racemic) [12b]", "inhibition at 10 µM", "=", 19],
  ["CCOC(=O)C1=C(N)N(c2ccc(Cl)cc2)C2=C(C(=O)CC(C)(C)C2)C1c1ccc(Cl)cc1 (racemic) [8e]", "inhibition at 10 µM", "=", 27],
  ["CCOC(=O)C1=C(N)N(c2ccc(Cl)cc2)C2=C(C(=O)CC(C)(C)C2)C1c1ccc([N+](=O)[O-])cc1 (racemic) [8k]", "inhibition at 10 µM", "<", 10],
  ["CCOC(=O)C1=C(N)N(c2ccc(Cl)cc2)C2=C(C(=O)CC(C)(C)C2)C1c1ccccn1 (racemic) [12c]", "inhibition at 10 µM", "<", 10]
]}
